assay: Drug degradation in phosphate buffer at pH 7.4 assessed as half life at 0.15 mM at 30 degreeC measured for 30 to 60 mins by HPLC-MS analysis; format: ADME; settings: time 30-60 min
measurement.type: half-life at 150 µM (h)
Hi! Could you send only the number? It should be in h, unit omitted.

[ask] Output measured half-life at 150 µM for this item: CC[C@H](C)[C@H](NC(=O)CCC(=O)N[C@@H](CCCCNC(=O)[C@@H](CCCNC(=N)N)NC(=O)CCCCCCCC(=O)N1CCN(c2ncnc3[nH]ccc23)CC1)C(=O)N[C@H](CCCNC(=N)N)C(=O)N[C@H](CCCNC(=N)N)C(N)=O)C(=O)NCC(=O)CF
[reply] 1.31
